Can you tell me MIC for the items I'm about to list?
- Test system: Enterococcus faecium
- test_protocol: MIC by NCCLS broth microdilution, 1100 Japanese clinical isolates 1997-1998
- Type: cell-based
- details: Enterococcus faecium, Enterococcus laecium (van B) vancomycin resistant, strain TMS6
Answers are plain numbers, in µg/mL.

Solved cases (3 shown):
- compound: "CO/N=C1\\CN(c2nc3c(cc2F)c(=O)c(C(=O)O)cn3C2CC2)CC1CN (racemic) [Gemifloxacin]"
  recorded_measurement: 32
- compound: "C[C@H]1COc2c(N3CCN(C)CC3)c(F)cc3c(=O)c(C(=O)O)cn1c23 [Levofloxacin, levofloxacin]"
  recorded_measurement: 32
- compound: "N[C@@H]1[C@H]2CN(c3nc4c(cc3F)c(=O)c(C(=O)O)cn4-c3ccc(F)cc3F)C[C@@H]12 [Trovafloxacin, trovafloxacin]"
  recorded_measurement: 32

Next compound, MIC to be filled in.
[ask] Form entry - test system: Enterococcus faecium; read-out: MIC; compound: C[C@@H]1CN(c2c(F)c(N)c3c(=O)c(C(=O)O)cn(C4CC4)c3c2F)C[C@H](C)N1 [Sparfloxacin, sparfloxacin]
[reply] 64
